tested on: Shionogi mouse mammary carcinoma cells; experiment: Androgenic/antiandrogenic activity on DHT-stimulated Shionogi cell growth; format: cell-based; settings: Mus musculus, read-out: Shionogi Antiandrogenic activity IC50 (nM), inhibition of DHT-stimulated Shionogi cell number
Measured log10 IC50, listed per entry for reference.
Property label: log10 IC50 (log10 of the value in nM)

{"Molecule": "O=C1C=C2CCC3C(CC[C@@]4(CCOc5cccc(C[S+]([O-])c6ccccc6)c5)C3CC[C@@H]4O)C2CC1 (some centres unmarked)", "log10 IC50": 1.66}
{"Molecule": "CCC(NC1CCCCC1)c1cc(OCC[C@]23CCC4C(CCC5=CC(=O)CC[C@@]54C)C2CCC3O)ccn1 (some centres unmarked)", "log10 IC50": 0.54}
{"Molecule": "CCCCC(NC1CCCCC1)c1cccc(OCC[C@]23CCC4C(CCC5CC(=O)CC[C@@]54C)C2CCC3=O)c1 (some centres unmarked)", "log10 IC50": 0.61}
{"Molecule": "CCC(CC)N(C)C(CC)c1cccc(OCC[C@]23CCC4C5CCC(=O)C=C5CCC4C2CC[C@]3(C)O)c1 (some centres unmarked)", "log10 IC50": -1.22}
{"Molecule": "CCC(CC)NC(CN(C)C)c1cccc(OCC[C@]23CCC4C(CCC5CC(=O)CC[C@@]54C)C2CC[C@@H]3O)c1 (some centres unmarked)", "log10 IC50": 0.86}
{"Molecule": "COCC(NC1CCCCC1)c1cncc(OCC[C@]23CCC4C(CCC5=CC(=O)CC[C@@]54C)C2CCC3O)c1 (some centres unmarked)", "log10 IC50": 0.87}
{"Molecule": "CC(NC1CCCCC1)c1cccc(OCC[C@]23CCC4C(CCC5C/C(=N\\O)CC[C@@]54C)C2CC[C@@H]3O)c1 (some centres unmarked)", "log10 IC50": 0.70}
{"Molecule": "CCCC(NC1CCCC1)c1cccc(OCC[C@]23CCC4C(CCC5CC(=O)CC[C@@]54C)C2CC[C@@H]3O)c1 (some centres unmarked)", "log10 IC50": 0.23}
{"Molecule": "CC(C)CCN1CCCCC1c1cccc(OCC[C@]23CCC4C(CCC5CC(=O)CC[C@@]54C)C2CC[C@@H]3O)c1 (some centres unmarked)", "log10 IC50": 0.98}
{"Molecule": "CCC(NC1CCCC1)c1cccc(OCC[C@]23CCC4C5CCC(=O)C=C5C[C@@H](C)C4C2CC[C@]3(C)O)c1 (mixture of isomers)", "log10 IC50": 0.11}
{"Molecule": "CCC(NC1CCOCC1)c1cccc(OCC[C@]23CCC4C(CCC5=CC(=O)CC[C@@]54C)C2CCC3O)c1 (some centres unmarked)", "log10 IC50": -0.70}
{"Molecule": "CCC(NC1CCOCC1)c1cccc(OCC[C@]23CCC4C(CCC5CC=CC[C@@]54C)C2CCC3O)c1 (some centres unmarked)", "log10 IC50": 1.66}
{"Molecule": "CCC(NC1CCOCC1)c1cccc(OCC[C@]23CCC4C(CCC5Cc6n[nH]cc6C[C@@]54C)C2CCC3O)c1 (some centres unmarked)", "log10 IC50": 0.64}
{"Molecule": "C[C@@H](c1cccc(OCC[C@]23CCC4C(CCC5CC(=O)CC[C@@]54C)C2CC[C@@H]3O)c1)N(C)C1CCCCC1 (some centres unmarked)", "log10 IC50": -1.00}

The measurements presented in this section are drawn from patent US9090651B2.
